Molecular target: Human Mer (residues R557-E882 with H628Q and R794A) (Homo sapiens (Human))
Sequence (Q12866 557-882, stated change not applied): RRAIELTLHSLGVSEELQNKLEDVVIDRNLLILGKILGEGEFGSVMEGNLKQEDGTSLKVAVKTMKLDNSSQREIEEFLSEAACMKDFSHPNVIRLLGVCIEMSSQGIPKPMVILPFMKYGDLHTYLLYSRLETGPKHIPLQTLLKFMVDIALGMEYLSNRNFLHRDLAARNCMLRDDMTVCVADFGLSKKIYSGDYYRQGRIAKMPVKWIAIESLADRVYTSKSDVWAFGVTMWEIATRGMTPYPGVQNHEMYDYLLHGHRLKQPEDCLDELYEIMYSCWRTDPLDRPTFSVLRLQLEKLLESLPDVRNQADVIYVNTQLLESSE
Assay: Human Mer kinase assay (33P radiometric, KinaseProfiler)
Conditions: 10 μM ATP
Description: Kinase activity and compound inhibition were investigated using the ^33P-Phosphoryl transfer radiometric kinase assay, performed using the KinaseProfiler™ service of Eurofins Pharma Discovery Services UK Limited. Dose-response experiments were performed using nine compound concentrations in a 96-well microtiter plate. […] IC50 values were calculated by nonlinear regression analysis using the sigmoidal dose-response (variable slope) curve fit on XLFit version 5.3 (ID Business Solutions). […]
pIC50: −log10 of the molar value.
# pIC50 per record follows

Observe how each entry below is paired with its result.
>  <RECORD_SMILES>
COC(=O)c1cc2c(Oc3ccc(NC(=O)C4(C(=O)Nc5ccc(F)cc5)CC4)cc3F)ccnc2cc1OC

>  <pIC50>
≥ 8.00

$$$$
>  <RECORD_SMILES>
COc1cc2nccc(Oc3ccc(NC(=O)C4(C(=O)Nc5ccc(F)cc5)CC4)cc3)c2cc1C1(O)CN(C(=O)OC(C)(C)C)C1

>  <pIC50>
≥ 8.00

$$$$
>  <RECORD_SMILES>
COc1cc2nccc(Oc3ccc(NC(=O)C4(C(=O)Nc5ccc(F)cc5)CC4)cc3)c2cc1C(=O)NCCN(C)C

>  <pIC50>
≥ 8.00

$$$$
>  <RECORD_SMILES>
COc1cc2nccc(Oc3ccc(NC(=O)C4(C(=O)Nc5ccc(F)cc5)CC4)cc3F)c2cc1C(=O)O

>  <pIC50>
7.00 to 8.00

$$$$
>  <RECORD_SMILES>
COc1cc2nccc(Oc3ccc(NC(=O)C4(C(=O)Nc5ccc(F)cc5)CC4)cc3)c2cc1N1CCC1

>  <pIC50>
≥ 8.00

$$$$

// pIC50 lookup, key: `NC(=O)c1ccc2nccc(Oc3ccc(NC(=O)C4(C(=O)Nc5ccc(F)cc5)CC4)cc3)c2c1` 7.00 to 8.00

Cool, now `NC(=O)c1cc2c(Oc3ccc(NC(=O)C4(C(=O)Nc5ccc(F)cc5)CC4)cc3)ccnc2cc1Cl` 7.00 to 8.00

Cool, now `COc1cc2c(Oc3ccc(NC(=O)C4(C(=O)Nc5ccc(F)cc5)CC4)cc3)ccnc2cc1C(N)=O` ≥ 8.00

Cool, now `COC(=O)c1cc2nccc(Oc3ccc(NC(=O)C4(C(=O)Nc5ccc(F)cc5)CC4)cc3)c2cc1OC` ≥ 8.00

---

# IC50 per record follows
Molecular target: KDR (Homo sapiens (Human), UniProt P35968)
Sequence (P35968 20-1356): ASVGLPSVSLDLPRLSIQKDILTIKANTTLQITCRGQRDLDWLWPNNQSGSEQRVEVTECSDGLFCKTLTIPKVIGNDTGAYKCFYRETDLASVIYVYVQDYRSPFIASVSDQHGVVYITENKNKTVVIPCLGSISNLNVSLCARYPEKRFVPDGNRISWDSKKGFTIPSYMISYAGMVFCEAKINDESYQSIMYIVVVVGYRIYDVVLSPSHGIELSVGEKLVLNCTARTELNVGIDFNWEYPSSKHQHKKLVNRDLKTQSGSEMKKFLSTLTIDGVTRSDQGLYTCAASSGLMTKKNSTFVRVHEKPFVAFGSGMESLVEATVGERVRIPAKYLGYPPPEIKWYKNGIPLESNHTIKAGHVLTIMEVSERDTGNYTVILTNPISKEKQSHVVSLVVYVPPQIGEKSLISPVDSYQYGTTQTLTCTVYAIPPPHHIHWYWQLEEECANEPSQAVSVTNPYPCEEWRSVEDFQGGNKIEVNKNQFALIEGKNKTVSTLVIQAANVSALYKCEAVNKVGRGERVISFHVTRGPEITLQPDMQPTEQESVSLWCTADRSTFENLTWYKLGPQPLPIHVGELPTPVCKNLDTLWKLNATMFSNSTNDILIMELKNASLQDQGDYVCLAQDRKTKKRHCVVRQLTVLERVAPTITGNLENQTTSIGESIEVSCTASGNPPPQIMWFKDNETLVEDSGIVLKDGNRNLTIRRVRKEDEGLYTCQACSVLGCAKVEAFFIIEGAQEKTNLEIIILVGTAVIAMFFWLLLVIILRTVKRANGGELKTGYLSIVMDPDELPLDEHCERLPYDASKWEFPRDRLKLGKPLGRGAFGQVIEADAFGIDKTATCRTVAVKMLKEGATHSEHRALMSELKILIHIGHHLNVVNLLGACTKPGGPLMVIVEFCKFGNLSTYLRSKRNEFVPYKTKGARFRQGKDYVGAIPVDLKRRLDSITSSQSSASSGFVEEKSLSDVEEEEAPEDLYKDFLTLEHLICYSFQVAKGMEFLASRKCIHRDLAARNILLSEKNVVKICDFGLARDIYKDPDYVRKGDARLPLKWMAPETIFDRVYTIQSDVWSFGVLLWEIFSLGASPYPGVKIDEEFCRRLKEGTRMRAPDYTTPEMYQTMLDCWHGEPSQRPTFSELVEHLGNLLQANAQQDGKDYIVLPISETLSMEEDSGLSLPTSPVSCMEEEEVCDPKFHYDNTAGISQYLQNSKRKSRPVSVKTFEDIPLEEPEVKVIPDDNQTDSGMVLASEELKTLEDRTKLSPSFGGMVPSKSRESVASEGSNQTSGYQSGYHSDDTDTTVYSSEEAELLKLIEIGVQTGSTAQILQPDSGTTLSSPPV
Experiment: KDR autophosphorylation ELISA in HUVEC cells
Settings: cellular, VEGF165 stimulated

Observe how each entry below is paired with its result.
>  <MOLECULE>
COc1cc2nccc(Oc3ccc(NC(=O)C4(C(=O)Nc5ccc(F)cc5)CC4)cc3)c2cc1-c1nnco1

>  <IC50>
≤ 10 nM

$$$$
>  <MOLECULE>
COc1cc2nccc(Oc3ccc(NC(=O)C4(C(=O)Nc5ccc(F)cc5)CC4)cc3)c2cc1C(=O)NOCC(O)CO (single isomer, unassigned) [Compound 31]

>  <IC50>
10 to 100 nM

$$$$
>  <MOLECULE>
CNC(=O)c1cc2nccc(Oc3ccc(NC(=O)C4(C(=O)Nc5ccc(F)cc5)CC4)cc3F)c2cc1C

>  <IC50>
10 to 100 nM

$$$$

Here's the next entry for you.
// IC50 lookup, key: `COc1cc2nccc(Oc3ccc(NC(=O)C4(C(=O)Nc5ccc(F)cc5)CC4)cc3)c2cc1C(=O)NOCCO` ≤ 10 nM

Data credit: patent US11542259B2
